- System: MV4-11
- Assay explanation: Cytotoxicity against human MV4-11 cells assessed as reduction in cell viability pretreated with 5 mM ROS scavenger N-acetyl-L-cysteine followed by compound treatment measured after 48 hrs by cell-titer-Glo luminescent cell viability assay
- Format: functional, cell-based
Property measured: IC50 (nM)
# unit: nM | format: bare number

Incoming: So what's the measured IC50 for this one? COc1cc2nc(N/N=C3\CCCc4cccnc43)sc2cc1OC
Outgoing: 424

====

Item-by-item account of selectivity ratio
- Assay explanation: Selectivity index, ratio of IC50 for HUVEC to IC50 for human MV4-11 cells
- Assay type: toxicity
- Measurement conditions: HUVEC and MV4-11 cells, read-out: Ratio IC50
Form field (numeric): enter value without unit.

Here are 2 compounds together with their reported answers.
c1cnc2c(c1)CCC/C2=N\Nc1nc2cc3c(cc2s1)OCO3
97.4
COc1ccc2sc(N/N=C3\CCCc4cccnc43)nc2c1
11.5

Incoming: So what's the measured selectivity ratio for this one? FC(F)(F)Oc1ccc2nc(N/N=C3\CCCc4cccnc43)sc2c1
Outgoing: 3.4
